meta.source: patent US7148236B2

reported-metric: melting point

Would you please look over these solved cases?
>>> recorded_measurement("CN1[C@@H]2CC[C@H]1C[C@H](Sc1ccc3[nH]c(=O)n(C)c3c1Cl)C2.Cl")
"> 260 °C"
>>> recorded_measurement("CN1[C@@H]2CC[C@H]1C[C@H](Sc1ccc3[nH]c(=O)[nH]c(=O)c3c1)C2")
"> 260 °C"
>>> recorded_measurement("CN1[C@@H]2CC[C@H]1C[C@H](Sc1ccc3[nH]c(=O)[nH]c3c1)C2")
"178.5 to 181.6 °C"
>>> recorded_measurement("CCCn1c(=S)[nH]c2ccc(S[C@@H]3C[C@H]4CC[C@@H](C3)N4C)c(Cl)c21")
"131.4 to 133.9 °C"
>>> recorded_measurement("CN1[C@@H]2CC[C@H]1C[C@H](Sc1cc3c(cc1Cl)[nH]c(=O)n3C)C2")
"206.4 to 207.2 °C"

Note: attention shifts to another entry.
Reported melting point ( "CC(C)n1c(=S)[nH]c2ccc(S[C@@H]3C[C@H]4CC[C@@H](C3)N4C)c(Cl)c21" ) = 228.9 to 230.9 °C
